# Target: UniProtKB P48039
# Sequence (P48039 whole entry): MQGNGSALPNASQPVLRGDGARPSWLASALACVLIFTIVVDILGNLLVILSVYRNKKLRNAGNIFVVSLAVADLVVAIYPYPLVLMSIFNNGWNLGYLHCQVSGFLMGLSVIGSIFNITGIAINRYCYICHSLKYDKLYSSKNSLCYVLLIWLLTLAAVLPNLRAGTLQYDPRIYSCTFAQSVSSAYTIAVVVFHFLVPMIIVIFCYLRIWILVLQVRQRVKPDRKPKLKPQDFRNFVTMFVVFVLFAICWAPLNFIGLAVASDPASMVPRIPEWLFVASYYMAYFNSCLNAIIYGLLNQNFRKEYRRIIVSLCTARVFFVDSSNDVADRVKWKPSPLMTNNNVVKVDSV
Endpoint Label: pKi
Numbers only, as −log10 of the molar value.

Please fill in: pKi reported for COc1ccc2cccc(C(CO)CNC(=O)CF)c2c1 (stereo not shown) = 8.33

====

# Target: MT2 receptor (Homo sapiens)
# Sequence (P49286 1-362): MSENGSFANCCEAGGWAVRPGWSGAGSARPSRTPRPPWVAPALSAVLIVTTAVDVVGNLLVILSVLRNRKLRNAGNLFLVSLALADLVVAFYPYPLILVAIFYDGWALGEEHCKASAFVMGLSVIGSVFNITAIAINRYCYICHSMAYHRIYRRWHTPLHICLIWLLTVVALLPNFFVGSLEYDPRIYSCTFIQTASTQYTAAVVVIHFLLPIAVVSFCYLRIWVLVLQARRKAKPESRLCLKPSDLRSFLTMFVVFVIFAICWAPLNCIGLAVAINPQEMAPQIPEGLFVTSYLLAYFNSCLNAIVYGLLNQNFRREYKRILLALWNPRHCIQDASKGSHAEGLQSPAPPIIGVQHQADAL
# Procedure Summary: Melatonin MT2 receptor binding study
Endpoint Label: Ki (nM)
Answers are plain numbers, in nM.

Please fill in: Ki reported for COc1ccc2cccc(C(CO)CNC(=O)CF)c2c1 (stereo not shown) [Example 1] = 0.5
